Biological target: human URAT1 (Homo sapiens, UniProt Q96S37)
Construct: expressed in transfected cells; host or cells: COS7 cells (RIKEN CELL BANK RCB0539), transient, pcDNA3.1
Sequence (Q96S37 whole entry): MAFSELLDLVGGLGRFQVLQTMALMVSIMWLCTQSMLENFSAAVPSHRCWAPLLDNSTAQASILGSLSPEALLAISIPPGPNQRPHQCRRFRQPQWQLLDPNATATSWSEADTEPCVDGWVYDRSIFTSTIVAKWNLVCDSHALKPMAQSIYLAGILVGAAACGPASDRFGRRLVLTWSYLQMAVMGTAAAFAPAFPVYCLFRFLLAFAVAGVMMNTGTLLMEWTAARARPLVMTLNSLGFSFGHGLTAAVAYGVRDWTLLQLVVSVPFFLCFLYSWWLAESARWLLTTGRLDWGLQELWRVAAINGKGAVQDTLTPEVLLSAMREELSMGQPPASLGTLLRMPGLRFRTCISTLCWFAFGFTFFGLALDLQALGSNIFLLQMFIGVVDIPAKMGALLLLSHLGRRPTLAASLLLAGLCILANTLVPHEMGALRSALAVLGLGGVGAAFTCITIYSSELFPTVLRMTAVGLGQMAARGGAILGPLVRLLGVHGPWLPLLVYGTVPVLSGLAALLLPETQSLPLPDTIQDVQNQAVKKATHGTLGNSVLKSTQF
Assay: Inhibitory activity of uric acid transport with human URAT1 expressing cells
Type: cell-based
Details: COS-7; concentration of 100 μM; 14C-uric acid uptake (20 μM) in COS7 cells transiently expressing human URAT1, 5 minutes, 37° C.; read-out: Percent inhibition
Here, each record is paired with measured inhibition at 100 µM data.

Illustrative cases are given below, each with its answer.
1. Cc1nc(-c2cc(C#N)c3ccccc3c2)sc1C(=O)O
> 80%
2. Cc1nc(-c2cc(C#N)c3c(F)cccc3c2)sc1C(=O)O
> 80%
3. N#Cc1cc(-c2ccc(C(=O)O)c(O)c2)nc2ccccc12
> 80%

Task: Report inhibition at 100 µM for N#Cc1cc(-c2ncc(C(=O)O)s2)cc2ccccc12 please.
Result: > 80%

Task: Likewise for Cc1nc(-c2cc(C#N)c3ccc(F)cc3c2)sc1C(=O)O ?
Result: > 80%

Task: Likewise for Cc1nc(-c2cc(C#N)c3c(C)ccc(F)c3c2)sc1C(=O)O ?
Result: > 80%

Task: Likewise for Cc1nc(-c2cc(C#N)c3cccc(F)c3c2)sc1C(=O)O ?
Result: > 80%

Task: Likewise for N#Cc1cc(-c2cc(C(=O)O)c(O)cn2)cc2ccccc12 ?
Result: > 80%

----------
The following are reported IC50 results, target or system Xanthine oxidase (from bovine milk, Sigma) (Bos taurus, UniProt P80457).
readout: IC50 (nM)

1. Cc1ccc2c(C#N)cc(-c3nc(C)c(C(=O)O)s3)cc2c1 [Example 9]
26
2. Cc1ccc2cc(-c3nc(C)c(C(=O)O)s3)cc(C#N)c2c1 [Example 8]
11
3. N#Cc1cc(-c2cc(C(=O)O)ccn2)cc2ccccc12 [Example 1]
11

P: N#Cc1cc(-c2cc(C(=O)O)c(O)cn2)cc2ccccc12 [Example 2]
Q: Cc1nc(-c2cc(C#N)c3cccc(F)c3c2)sc1C(=O)O [Example 13]
Task: // returns P or Q , whichever has the lower IC50 Mark your answer with the label of the selected entry.
Result: Q
(Q: 8 nM, P: 13 nM)
